System: L1210 cell line (mouse leukemia)
test_name: Cytotoxic activity, L1210 cell line
Type: cell-based
assay_conditions: Mus musculus, L1210, text range over L1210 and H460; natural enantiomer
measured_endpoint: IC50

Suppose we examine the compound CC(C)(C)OC(=O)NOc1cc2c(c3ccccc13)[C@H](CCl)CN2C(=O)c1cc2cc(NC(=O)c3cc4ccccc4[nH]3)ccc2[nH]1 ; what IC50 value has been reported?
0.03 to 0.2 nM
